targetOrSystem: hERG channel (Homo sapiens, UniProt Q12809)
Sequence (Q12809 whole entry): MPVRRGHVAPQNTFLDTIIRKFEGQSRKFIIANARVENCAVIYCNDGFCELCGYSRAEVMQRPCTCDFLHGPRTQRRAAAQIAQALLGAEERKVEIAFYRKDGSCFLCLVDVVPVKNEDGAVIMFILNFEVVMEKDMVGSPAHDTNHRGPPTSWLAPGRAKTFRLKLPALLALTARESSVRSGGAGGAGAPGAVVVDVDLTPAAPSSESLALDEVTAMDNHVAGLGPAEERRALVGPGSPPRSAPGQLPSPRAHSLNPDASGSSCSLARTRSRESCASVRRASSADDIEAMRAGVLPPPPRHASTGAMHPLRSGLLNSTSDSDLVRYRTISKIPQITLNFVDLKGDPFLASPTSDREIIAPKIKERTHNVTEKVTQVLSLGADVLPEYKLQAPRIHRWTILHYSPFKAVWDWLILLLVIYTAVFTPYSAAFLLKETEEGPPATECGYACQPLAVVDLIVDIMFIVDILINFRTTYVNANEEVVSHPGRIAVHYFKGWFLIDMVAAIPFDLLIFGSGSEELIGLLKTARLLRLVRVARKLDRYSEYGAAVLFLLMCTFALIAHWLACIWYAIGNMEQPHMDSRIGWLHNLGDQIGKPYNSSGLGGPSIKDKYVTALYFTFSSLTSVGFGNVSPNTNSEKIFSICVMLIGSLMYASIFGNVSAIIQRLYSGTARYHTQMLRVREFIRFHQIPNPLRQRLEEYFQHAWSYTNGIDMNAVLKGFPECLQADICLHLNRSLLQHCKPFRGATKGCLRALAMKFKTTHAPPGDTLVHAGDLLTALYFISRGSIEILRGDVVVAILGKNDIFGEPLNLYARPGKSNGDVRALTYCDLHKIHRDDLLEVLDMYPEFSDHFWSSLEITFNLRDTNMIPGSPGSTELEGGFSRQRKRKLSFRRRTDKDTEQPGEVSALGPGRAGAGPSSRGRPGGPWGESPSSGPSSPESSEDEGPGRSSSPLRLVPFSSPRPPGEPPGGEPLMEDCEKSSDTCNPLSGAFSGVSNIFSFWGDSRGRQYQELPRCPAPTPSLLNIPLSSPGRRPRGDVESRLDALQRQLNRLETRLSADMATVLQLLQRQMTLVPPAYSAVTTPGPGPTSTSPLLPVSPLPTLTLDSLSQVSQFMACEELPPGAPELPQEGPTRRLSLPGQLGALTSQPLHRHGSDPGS
method: hERG channel inhibition, in vitro
Format: biochemical
setupConditions: read-out: hERG IC50
measuredMetric: IC50

Query: For C[C@@H](CO)NC(=O)c1cc(-c2ccc(Cl)cc2)nn(-c2cnn(C)c2)c1=O , what is its reported IC50?
Reply: > 10 µM
